- System: M. abscessus (ATCC 19977)
- ASSAY_INFO: MIC by broth microdilution, M. abscessus in cation adjusted Mueller Hinton broth
- Format: cell-based
- ASSAY_SETUP: Mycobacteroides abscessus, ATCC19977, 96 h; ATCC 19977; cation adjusted Mueller Hinton broth without growth supplement; 30° C., 4 days; read-out: MIC M. abscessus MH
RESULT_TYPE: MIC (µg/mL)
Reply with just the number (in µg/mL).

Solved entries:
CO[C@H]1/C=C/O[C@@]2(C)Oc3c(C)c(O)c4c(c3C2=O)C2=NC3(CCN(CC(C)C)CC3)NC2=C(NC(=O)/C(C)=C\C=C\[C@H](C)[C@H](O)[C@@H](C)[C@@H](O)[C@@H](C)[C@H](OC(=O)N2CCC(N(C)c3ccccc3)CC2)[C@@H]1C)C4=O: 1
CO[C@H]1/C=C/O[C@@]2(C)Oc3c(C)c(O)c4c(c3C2=O)C2=NC3(CCN(CC(C)C)CC3)NC2=C(NC(=O)/C(C)=C\C=C\[C@H](C)[C@H](O)[C@@H](C)[C@@H](O)[C@@H](C)[C@H](OC(=O)N2CCN(CCC(C)C)CC2)[C@@H]1C)C4=O: 0.125
CO[C@H]1/C=C/O[C@@]2(C)Oc3c(C)c(O)c4c(c3C2=O)C2=NC3(CCN(CC(C)C)CC3)NC2=C(NC(=O)/C(C)=C\C=C\[C@H](C)[C@H](O)[C@@H](C)[C@@H](O)[C@@H](C)[C@H](OC(=O)N2CCN(Cc3nccn3C)CC2)[C@@H]1C)C4=O: 2

// query MIC value for entry CCCN1CCC(NC(=O)O[C@H]2[C@H](C)[C@H](O)[C@H](C)[C@@H](O)[C@@H](C)/C=C/C=C(/C)C(=O)NC3=C4NC5(CCN(CC(C)C)CC5)N=C4c4c(c(O)c(C)c5c4C(=O)[C@@](C)(O/C=C/[C@H](OC)[C@H]2C)O5)C3=O)CC1 1

----------
- System: M. abscessus (ATCC 19977)
- ASSAY_INFO: MIC by broth microdilution, M. abscessus in cation adjusted Mueller Hinton broth
- Assay type: cell-based
- ASSAY_SETUP: Mycobacteroides abscessus, ATCC19977, 96 h; ATCC 19977; cation adjusted Mueller Hinton broth without growth supplement; 30° C., 4 days; read-out: MIC M. abscessus MH
- Procedure: MIC values were determined by broth microdilution method according to the CLSI guidelines with the following exceptions: MIC against A. baumannii was performed in RPMI medium supplemented with 10% FCS and MIC against M. abscessus was performed in Middlebrook 7H9 broth supplemented with Middlebrook ADC growth supplement (10%; see column “M. abscessus 7H9”). […]
A collection of molecules and their measured MIC
Reply numerically in µg/mL, unit not repeated.

// solved cases for MIC follow
CO[C@H]1/C=C/O[C@@]2(C)Oc3c(C)c(O)c4c(c3C2=O)C2=NC3(CCN(CC(C)C)CC3)NC2=C(NC(=O)/C(C)=C\C=C\[C@H](C)[C@H](O)[C@@H](C)[C@@H](O)[C@@H](C)[C@H](OC(=O)N2CCN(C3CCN(C)CC3)CC2)[C@@H]1C)C4=O [Compound 11]: 4
CO[C@H]1/C=C/O[C@@]2(C)Oc3c(C)c(O)c4c(c3C2=O)C2=NC3(CCN(CC(C)C)CC3)NC2=C(NC(=O)/C(C)=C\C=C\[C@H](C)[C@H](O)[C@@H](C)[C@@H](O)[C@@H](C)[C@H](OC(=O)N2CCN(Cc3c(C)noc3C)CC2)[C@@H]1C)C4=O [Compound 38]: 1
CO[C@H]1/C=C/O[C@@]2(C)Oc3c(C)c(O)c4c(c3C2=O)C2=NC3(CCN(CC(C)C)CC3)NC2=C(NC(=O)/C(C)=C\C=C\[C@H](C)[C@H](O)[C@@H](C)[C@@H](O)[C@@H](C)[C@H](OC(=O)N2CCCN(C3CCCC3)CC2)[C@@H]1C)C4=O [Compound 60]: 0.25

Okay, now this molecule:
Requested read-out MIC, target or system M. abscessus (ATCC 19977), entry CO[C@H]1/C=C/O[C@@]2(C)Oc3c(C)c(O)c4c(c3C2=O)C2=NC3(CCN(CC(C)C)CC3)NC2=C(NC(=O)/C(C)=C\C=C\[C@H](C)[C@H](O)[C@@H](C)[C@@H](O)[C@@H](C)[C@H](OC(=O)NC2CCN(C(C)C)CC2)[C@@H]1C)C4=O [Compound 76] 2
